tested on: P388 leukemia ip, CD2F1 mice, survival T/C; experiment: NCI In Vivo Anticancer Drug Screen. Data for tumor model P388 Leukemia (intraperitoneal) in CD2F1 (CDF1) mice; details: endpoint: median survival time; dose: 50.0 mg/kg/injection; schedule: Q01DX001 (ip); vehicle: saline with Tween-80; higher = longer survival
Inconclusive results and toxic doses are left out.
endpoint: T/C

Reference set (3 entries):
molecular.string | T/C
S=P1(Sc2ccccc2)Oc2ccccc2O1 | 106 % of control
CCCCCCCCCCCCCCCCCC[N+]1(CC)CCSCC1 | 98 % of control
Nc1ccc(S(=O)(=O)Nc2ccccc2O)cc1 | 100 % of control

Please find the next compound below.
Supply T/C measured with P388 leukemia ip, CD2F1 mice, survival T/C for COC(=O)Cn1/c(=N\N=C(/C)c2ccc([N+](=O)[O-])cc2)sc2ccccc21 .
89 % of control
